Where these numbers come from: patent US20200399381A1

- assayedSystem: T1, human IFNAR-1 protein (form not stated) (human, UniProt P17181 28-436, limits assumed)
- T1 construct: bispecific ELISA
- T1 sequence (looked up): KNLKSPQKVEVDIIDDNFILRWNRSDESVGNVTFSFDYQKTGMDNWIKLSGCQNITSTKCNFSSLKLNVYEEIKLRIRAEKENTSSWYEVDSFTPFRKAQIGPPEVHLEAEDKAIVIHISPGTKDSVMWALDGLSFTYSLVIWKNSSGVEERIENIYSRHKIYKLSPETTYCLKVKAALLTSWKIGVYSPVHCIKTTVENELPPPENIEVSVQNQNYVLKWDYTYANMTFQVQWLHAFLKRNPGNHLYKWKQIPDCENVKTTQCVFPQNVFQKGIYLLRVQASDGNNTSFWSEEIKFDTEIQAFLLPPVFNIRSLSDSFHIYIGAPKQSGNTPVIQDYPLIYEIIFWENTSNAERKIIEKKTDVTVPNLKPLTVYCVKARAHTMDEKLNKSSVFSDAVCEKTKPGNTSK
- assayProcedure: affinity measurement of purified IgG at different concentrations (method not named)
reportedEndpoint: koff

Answered examples (2):
binder="485G10-H2L3 (antibody, V domains shown, Humanized IgG expressed in HEK293; also called VH2 + VL3 (485G10)) VH: QVQLVQSGAEVKKPGASVKLSCKASGFNIKDYYIHWVKQAPGQGLEWIGRIDPEDAETKYAPKFQGRVTMTADTSISTAYMELSRLRSDDTVVYYCGRYHGYWALDYWGQGTLVTVSS VL: DIQMTQSPSSLSTSVGDRVTITCKTSQNVGTNVAWYQQKPGKAPKPLIYSTSYRYSGVPSRFSGSGSGTDFTLTISSVQPEDFATYYCHQYFSYPYTFGPGTKLDIK" experimentalresult="0.000366 s⁻¹"
binder="485G10-H1L3 (antibody, V domains shown, Humanized IgG expressed in HEK293; also called VH1 + VL3 (485G10)) VH: QVQLVQSGAEVKKPGASVKVSCKASGFNIKDYYIHWVRQAPGQGLEWMGRIDPEDAETKYAPKFQGRVTMTADTSISTAYMELSRLRSDDTVVYYCARYHGYWALDYWGQGTLVTVSS VL: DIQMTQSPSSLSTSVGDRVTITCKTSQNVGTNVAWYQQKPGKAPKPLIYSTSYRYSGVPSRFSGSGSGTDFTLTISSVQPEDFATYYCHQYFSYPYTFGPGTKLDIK" experimentalresult="0.000232 s⁻¹"

Sample 485G10-H1L4 (antibody, V domains shown, Humanized IgG expressed in HEK293; also called VH1 + VL4 (485G10)) VH: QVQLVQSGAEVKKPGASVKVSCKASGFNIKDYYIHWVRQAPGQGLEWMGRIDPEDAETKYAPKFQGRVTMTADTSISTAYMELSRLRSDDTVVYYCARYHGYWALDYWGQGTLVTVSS VL: DIQMTQSPSSLSTSVGDRVTVTCKTSQNVGTNVAWYQQKPGKAPKPLIYSTSYRYSGVPSRFSGSGSGTDFTLTISSVQPEDFATYYCHQYFSYPYTFGPGTKLDIK — what was its koff?
0.000259 s⁻¹

Sample 485G10-H1L2 (antibody, V domains shown, Humanized IgG expressed in HEK293; also called VH1 + VL2 (485G10)) VH: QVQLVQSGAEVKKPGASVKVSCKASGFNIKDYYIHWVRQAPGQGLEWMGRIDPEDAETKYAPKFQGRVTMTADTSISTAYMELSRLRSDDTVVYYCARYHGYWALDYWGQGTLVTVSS VL: DIQMTQSPSSLSTSVGDRVTITCKTSQNVGTNVAWYQQKPGKAPKPLIYSTSYRYSGVPSRFSGSGSGTDFTLTISSLQPEDFATYYCHQYFSYPYTFGPGTKVDIK — what was its koff?
0.000321 s⁻¹
